Literature roundup of ASK1 (Homo sapiens (Human), UniProt Q99683) data, read-out IC50.

Known value: ASK1 (Homo sapiens (Human), UniProt Q99683) IC50 of the compound C[C@H](CO)n1nnnc1-c1cccc(NC(=O)c2cc3c(cn2)CCN(CC2CC2)C3)n1 equals 1 to 10 nM

Known value: ASK1 (Homo sapiens (Human), UniProt Q99683) IC50 of the compound C[C@H](CO)n1nnnc1-c1cccc(NC(=O)c2cc3c(cc2F)CCN(S(=O)(=O)Nc2ccc(F)cc2)C3)n1 equals 10 to 100 nM

Known value: ASK1 (Homo sapiens (Human), UniProt Q99683) IC50 of the compound CC(C)n1nnnc1-c1cccc(NC(=O)c2cc(-c3cnn(C4CC4)c3)c(N3CCCCC3)cn2)n1 equals 10 to 100 nM

Known value: ASK1 (Homo sapiens (Human), UniProt Q99683) IC50 of the compound Cn1nccc1-c1ccc2c(c1)CN(c1cccc(-c3nncn3C3CC3)n1)C2=O equals < 200 nM

Known value: ASK1 (Homo sapiens (Human), UniProt Q99683) IC50 of the compound CN(C)c1cc2c(cc1-c1cccnc1)C(=O)N(c1cccc(-c3nncn3C3CC3)n1)C2 equals < 200 nM

Known value: ASK1 (Homo sapiens (Human), UniProt Q99683) IC50 of the compound C[C@H](CO)n1nnnc1-c1cccc(NC(=O)c2cc3c(cc2F)CCN(S(=O)(=O)CCC(F)(F)F)C3)n1 equals 1 to 10 nM

Known value: ASK1 (Homo sapiens (Human), UniProt Q99683) IC50 of the compound CC(C)n1nnnc1-c1cccc(NC(=O)c2cc3c(cc2F)CCN(S(=O)(=O)CC2CC2)C3)n1 equals 10 to 100 nM

----------
Literature roundup of ASK1 (Homo sapiens (Human), UniProt Q99683) data, read-out IC50.

Documented IC50 of COc1cc2c(cc1C(=O)Nc1cccc(-c3nncn3C(C)C)n1)S(=O)(=O)N(C)C2 : < 1.5 nM

Documented IC50 of C[C@@H]1COc2c(NC(=O)c3cc(-n4cnc(C5CC5)c4)ccn3)cccc2-c2nnnn21 : 5.7 nM

Documented IC50 of Cn1c2ccccc2c(=O)n1-c1cccc(-c2nncn2C2CC2)n1 : 1000 to 10000 nM

Documented IC50 of COCCOC(=O)N1CCc2cc(F)c(C(=O)Nc3cccc(-c4nnnn4[C@H](C)CO)n3)cc2C1 : 10 to 100 nM

Documented IC50 of CC(C)COC(=O)N1CCc2cnc(C(=O)Nc3cccc(-c4nnnn4[C@H](C)CO)n3)cc2C1 : 1 to 10 nM

Documented IC50 of CC(C)n1cnnc1-c1cccc(NC(=O)c2cc3c(cc2F)CCN(S(=O)(=O)CC2CC2)C3)n1 : 10 to 100 nM

Documented IC50 of Cc1cnc(C(=O)Nc2cccc(-c3nnnn3C(C)C)n2)cc1-c1cnn(C2CC2)c1 : 10 to 100 nM

Documented IC50 of CC(C)n1cnnc1-c1cccc(NC(=O)c2ccc3c(c2)CN(C(=O)c2nccs2)CC3)n1 : 10 to 100 nM

----------
Literature roundup of ASK1 (Homo sapiens (Human), UniProt Q99683) data, read-out IC50.

Known value: ASK1 (Homo sapiens (Human), UniProt Q99683) IC50 of the compound COc1cc2c(cc1C(=O)Nc1cccc(-c3nncn3C(C)C)n1)CN(C(=O)OC(C)(C)C)CC2 equals 10 to 100 nM

Known value: ASK1 (Homo sapiens (Human), UniProt Q99683) IC50 of the compound CC(C)n1cnnc1-c1cccc(NC(=O)c2cc3sc(N4CCN(C(C)(C)C)CC4)nc3cc2F)n1 equals 10 to 100 nM

Known value: ASK1 (Homo sapiens (Human), UniProt Q99683) IC50 of the compound C[C@H](CO)n1nnnc1-c1cccc(NC(=O)c2cc3c(cn2)CCN(C(=O)C(C)(C)CO)C3)n1 equals 10 to 100 nM

Known value: ASK1 (Homo sapiens (Human), UniProt Q99683) IC50 of the compound CC(C)n1nnnc1-c1cccc(NC(=O)c2cc3c(cn2)CCN(C(=O)N(C)C)C3)n1 equals 1 to 10 nM

Known value: ASK1 (Homo sapiens (Human), UniProt Q99683) IC50 of the compound CC(C)n1cnnc1-c1cccc(NC(=O)c2ccc3c(c2)CNC3)n1 equals > 1000 nM

Known value: ASK1 (Homo sapiens (Human), UniProt Q99683) IC50 of the compound C[C@H](CO)n1nnnc1-c1cccc(NC(=O)c2cc3c(cn2)CCN(C(=O)N2CCCC2)C3)n1 equals 1 to 10 nM

Known value: ASK1 (Homo sapiens (Human), UniProt Q99683) IC50 of the compound CC(C)n1nnnc1-c1cccc(NC(=O)c2cc3c(cc2F)CCN(C(=O)N2CCCC2)C3)n1 equals 10 to 100 nM

Known value: ASK1 (Homo sapiens (Human), UniProt Q99683) IC50 of the compound CNc1nc2cc(F)c(C(=O)Nc3cccc(-c4nnnn4C(C)C)n3)cc2s1 equals > 1000 nM
